- measured.target: Proteinase-activated receptor 4 (Homo sapiens)
- procedure.text: Antagonist activity at PAR4 in human platelets assessed as inhibition of gamma-thrombin-induced P-selectin activation
measured.property: IC50

Please indicate IC50 recorded for "COc1nn2cc(-c3cc4cc(OC(F)(F)F)ccc4n3C)nc2s1"
1000 nM

###

- measured.target: Proteinase-activated receptor 4 (Homo sapiens)
- Sequence (Q96RI0 whole entry): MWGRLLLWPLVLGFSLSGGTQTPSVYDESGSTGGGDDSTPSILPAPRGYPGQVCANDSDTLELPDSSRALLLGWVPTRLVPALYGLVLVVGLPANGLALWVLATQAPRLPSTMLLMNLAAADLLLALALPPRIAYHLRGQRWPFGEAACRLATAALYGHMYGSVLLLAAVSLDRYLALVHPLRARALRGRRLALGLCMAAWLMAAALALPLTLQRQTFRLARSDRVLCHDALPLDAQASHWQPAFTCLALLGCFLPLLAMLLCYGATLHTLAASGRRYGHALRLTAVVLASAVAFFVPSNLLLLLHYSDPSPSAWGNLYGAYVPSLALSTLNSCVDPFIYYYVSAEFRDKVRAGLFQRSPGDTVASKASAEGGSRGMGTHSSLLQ
- procedure.text: Antagonist activity at PAR4 in human platelets assessed as inhibition of activating peptide-induced PAC1 binding response preincubated for 20 mins followed by agonist addition for 20 mins by FITC-based flow cytometric analysis
Overview of recorded IC50 for various compounds

Please indicate IC50 recorded for "COc1nn2cc(-c3cc4cc(OC(F)(F)F)ccc4n3C)nc2s1"
0.02 to 0.021 µM

Please indicate IC50 recorded for "CNc1nn2cc(-c3c(F)cccc3F)nc2s1"
> 10 µM

Please indicate IC50 recorded for "COc1nn2cc(-c3cccc([N+](=O)[O-])c3)nc2s1"
> 10 µM
